The measurements presented in this section are drawn from ChEMBL document CHEMBL1135162.

test system: Cryptococcus neoformans; experiment: Tested for in vitro antifungal activity against Cryptococcus neoformans TIMM1855; format: functional
Please respond with reported MIC for every item in the list.
API: value field is a number in µg/mL; no unit string.

INPUT: Please report MIC for the following molecule: COc1cccc(CN2C[C@H](OCC34C[C@@H]5[C@H](C)CC[C@H]5C5(C=O)CC3C=C(C(C)C)C45C(=O)O)O[C@H](C)[C@@H](OC)C2)c1 (stereo partly specified)
OUTPUT: 2

INPUT: Please report MIC for the following molecule: C=C(Cl)CN1C[C@H](OCC23C[C@@H]4[C@H](C)CC[C@H]4C4(C=O)CC2C=C(C(C)C)C34C(=O)O)O[C@H](C)C1 (stereo partly specified)
OUTPUT: 16

INPUT: Please report MIC for the following molecule: C/C=C/C=C\C(=O)O[C@H]1[C@H](O)[C@H](OCC23C[C@@H]4[C@H](C)CC[C@H]4C4(C=O)CC2C=C(C(C)C)C34C(=O)O)O[C@H](C)[C@H]1OC (stereo partly specified)
OUTPUT: 0.25

INPUT: Please report MIC for the following molecule: CO[C@H]1CN(Cc2ccccc2)C[C@H](OCC23C[C@@H]4[C@H](C)CC[C@H]4C4(C=O)CC2C=C(C(C)C)C34C(=O)O)O[C@@H]1C (stereo partly specified)
OUTPUT: 4

====

test system: Candida albicans; assay: Tested for in vitro antifungal activity against Candida albicans ATCC 24433 in the presence of horse serum (20%); type: functional
Please respond with reported log10(MIC) for every item in the list.
Values are log10 of MIC in µg/mL.

INPUT: Please report log10(MIC) for the following compound: C=C(Br)CN1C[C@H](OCC23C[C@@H]4[C@H](C)CC[C@H]4C4(C=O)CC2C=C(C(C)C)C34C(=O)O)O[C@H](C)[C@@H](OC)C1 (stereo partly drawn)
OUTPUT: 0.00

INPUT: Please report log10(MIC) for the following compound: CO[C@H]1CN(CC=C(Cl)Cl)C[C@H](OCC23C[C@@H]4[C@H](C)CC[C@H]4C4(C=O)CC2C=C(C(C)C)C34C(=O)O)O[C@@H]1C (stereo partly drawn)
OUTPUT: 0.30

INPUT: Please report log10(MIC) for the following compound: C/C=C/C=C\C(=O)O[C@H]1[C@H](O)[C@H](OCC23C[C@@H]4[C@H](C)CC[C@H]4C4(C=O)CC2C=C(C(C)C)C34C(=O)O)O[C@H](C)[C@H]1OC (stereo partly drawn)
OUTPUT: 0.60

INPUT: Please report log10(MIC) for the following compound: CO[C@H]1CN(Cc2ccc(Cl)cc2)C[C@H](OCC23C[C@@H]4[C@H](C)CC[C@H]4C4(C=O)CC2C=C(C(C)C)C34C(=O)O)O[C@@H]1C (stereo partly drawn)
OUTPUT: 0.90

INPUT: Please report log10(MIC) for the following compound: C=C(Cl)CN1C[C@H](OCC23C[C@@H]4[C@H](C)CC[C@H]4C4(C=O)CC2C=C(C(C)C)C34C(=O)O)O[C@H](C)C1 (stereo partly drawn)
OUTPUT: -0.30

INPUT: Please report log10(MIC) for the following compound: CO[C@H]1CN(Cc2ccc3c(c2)OCO3)C[C@H](OCC23C[C@@H]4[C@H](C)CC[C@H]4C4(C=O)CC2C=C(C(C)C)C34C(=O)O)O[C@@H]1C (stereo partly drawn)
OUTPUT: 0.00

INPUT: Please report log10(MIC) for the following compound: C=C(CF)CN1C[C@H](OCC23C[C@@H]4[C@H](C)CC[C@H]4C4(C=O)CC2C=C(C(C)C)C34C(=O)O)O[C@H](C)[C@@H](OC)C1 (stereo partly drawn)
OUTPUT: -0.30

INPUT: Please report log10(MIC) for the following compound: CO[C@H]1CN(Cc2ccc(SC)cc2)C[C@H](OCC23C[C@@H]4[C@H](C)CC[C@H]4C4(C=O)CC2C=C(C(C)C)C34C(=O)O)O[C@@H]1C (stereo partly drawn)
OUTPUT: 0.60
